The reported numbers originate from the SangsterLogP compilation.

Experimental details: method code SF-AS, from PMID: 43458
So basically: is logP under 2? Then T. Not under? Then F.

Consider the worked cases shown below.
Item smiles	Classification
CCCCOC(=O)c1cc(O)c(O)c(O)c1	F
CC(C)COC(=O)c1cc(O)c(O)c(O)c1	F
CCOC(=O)c1cc(O)c(O)c(O)c1	T
CCCCCCCCOC(=O)c1cc(O)c(O)c(O)c1	F
CCCOC(=O)c1cc(O)c(O)c(O)c1	T

Here's the next entry for you.
Q: Check if logP falls below 2 for "COC(=O)c1cc(O)c(O)c(O)c1" .
Ans: T
